Biological target: Gastrin/cholecystokinin type B receptor (Homo sapiens, UniProt P32239)
Sequence (P32239 whole entry): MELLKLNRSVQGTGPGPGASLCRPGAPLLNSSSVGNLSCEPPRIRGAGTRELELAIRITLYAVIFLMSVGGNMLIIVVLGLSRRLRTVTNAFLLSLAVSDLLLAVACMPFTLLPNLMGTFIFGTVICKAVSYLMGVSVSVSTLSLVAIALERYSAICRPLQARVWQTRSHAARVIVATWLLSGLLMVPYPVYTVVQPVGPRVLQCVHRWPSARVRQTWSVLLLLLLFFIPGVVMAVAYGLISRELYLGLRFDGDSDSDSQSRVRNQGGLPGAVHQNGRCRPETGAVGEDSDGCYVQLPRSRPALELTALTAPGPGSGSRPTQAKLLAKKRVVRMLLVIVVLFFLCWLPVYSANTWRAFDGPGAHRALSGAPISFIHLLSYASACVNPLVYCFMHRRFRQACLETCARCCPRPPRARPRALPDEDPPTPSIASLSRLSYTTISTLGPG
Test: Tested for 50% displacement of [125I]CCK-8 from membrane preparation isolated from CHO-K1 cells stably transfected with the cDNA of human Cholecystokinin type B receptor
pIC50: −log10 of the molar value.
quantityMeasured: pIC50

[a] COc1ccc(N(C(=O)CN(C(=O)[C@@H](CCC(=O)O)NC(=O)Nc2ccccc2)c2ccccc2)C(C)C)cc1
[b] CC(C)N(C(=O)CN(C(=O)CNC(=O)Nc1ccccc1)c1ccccc1)c1ccccc1
[c] CC(C)N(C(=O)CN(C(=O)[C@@H](CCC(=O)O)NC(=O)Nc1ccccc1)c1ccccc1)c1ccccc1
Please arrange the 3 compounds above from largest to smallest pIC50 value. Your answer should be the labels, listed in the requested order.
b, c, a
